Entry source: ChEMBL document CHEMBL4602676

pIC50: −log10 of the molar value.
What follows is a record of pIC50 for UniProt P08684.
Sequence (P08684 whole entry): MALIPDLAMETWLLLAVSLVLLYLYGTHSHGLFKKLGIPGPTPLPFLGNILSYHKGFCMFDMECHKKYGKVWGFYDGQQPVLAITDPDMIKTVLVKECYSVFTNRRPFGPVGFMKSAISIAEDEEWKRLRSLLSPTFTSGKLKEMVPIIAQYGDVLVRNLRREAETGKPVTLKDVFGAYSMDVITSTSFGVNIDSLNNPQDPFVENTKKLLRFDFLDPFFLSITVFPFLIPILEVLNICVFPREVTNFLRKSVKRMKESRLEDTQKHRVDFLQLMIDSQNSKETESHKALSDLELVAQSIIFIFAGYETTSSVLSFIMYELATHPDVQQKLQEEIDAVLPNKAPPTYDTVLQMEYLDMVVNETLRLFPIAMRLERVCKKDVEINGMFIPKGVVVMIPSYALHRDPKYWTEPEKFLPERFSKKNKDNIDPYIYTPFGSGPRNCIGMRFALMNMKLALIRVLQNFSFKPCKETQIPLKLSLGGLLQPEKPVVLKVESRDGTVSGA
readout.kind: pIC50

Cl.Clc1cncc(OC[C@@H]2C[C@H]3C[C@H]3N2)c1    < 4.35
Cl.Clc1ccc(OC[C@@H]2C[C@H]3C[C@H]3N2)cn1    < 4.35
Clc1ccc(OC[C@H]2C[C@H]3C[C@H]3N2)cn1    < 4.35

----------
Below, each entry is listed with its recorded pKi.
assayed.system: Neuronal acetylcholine receptor; alpha4/beta2 (Homo sapiens, UniProt P17787+P43681)
Sequence (P17787 whole entry): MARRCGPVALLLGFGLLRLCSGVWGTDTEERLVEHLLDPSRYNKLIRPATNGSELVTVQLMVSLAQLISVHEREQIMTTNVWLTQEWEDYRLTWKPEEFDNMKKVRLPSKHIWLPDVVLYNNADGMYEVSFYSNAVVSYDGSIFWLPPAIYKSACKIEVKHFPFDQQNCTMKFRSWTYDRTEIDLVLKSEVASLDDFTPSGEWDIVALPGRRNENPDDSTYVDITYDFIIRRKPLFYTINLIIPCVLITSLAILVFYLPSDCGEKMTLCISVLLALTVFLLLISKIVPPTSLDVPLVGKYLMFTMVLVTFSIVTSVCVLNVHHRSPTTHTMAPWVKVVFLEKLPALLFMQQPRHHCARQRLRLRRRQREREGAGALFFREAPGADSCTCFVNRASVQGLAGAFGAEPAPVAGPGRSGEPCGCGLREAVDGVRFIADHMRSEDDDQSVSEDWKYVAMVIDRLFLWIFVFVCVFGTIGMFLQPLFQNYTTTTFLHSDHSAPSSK
Sequence (P43681 whole entry): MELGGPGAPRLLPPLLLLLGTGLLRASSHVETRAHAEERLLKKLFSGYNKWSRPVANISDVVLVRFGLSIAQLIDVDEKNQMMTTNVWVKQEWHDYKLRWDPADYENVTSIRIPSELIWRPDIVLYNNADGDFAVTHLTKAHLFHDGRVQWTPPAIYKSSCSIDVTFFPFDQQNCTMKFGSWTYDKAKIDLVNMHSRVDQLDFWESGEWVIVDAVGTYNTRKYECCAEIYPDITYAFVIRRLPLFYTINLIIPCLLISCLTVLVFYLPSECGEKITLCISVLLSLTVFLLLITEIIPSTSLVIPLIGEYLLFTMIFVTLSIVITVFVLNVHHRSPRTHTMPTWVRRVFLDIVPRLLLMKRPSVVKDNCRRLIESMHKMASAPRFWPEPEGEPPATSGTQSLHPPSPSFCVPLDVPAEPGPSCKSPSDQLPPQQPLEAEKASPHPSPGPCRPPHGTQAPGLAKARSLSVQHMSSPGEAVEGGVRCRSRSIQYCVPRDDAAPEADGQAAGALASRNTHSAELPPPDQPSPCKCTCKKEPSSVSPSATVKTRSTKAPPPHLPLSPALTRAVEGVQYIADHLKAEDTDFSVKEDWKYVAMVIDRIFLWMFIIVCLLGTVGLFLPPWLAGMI
method.summary: Displacement of [3H]cytisine from human alpha4beta2 nAChR expressed in CHOK1 cell membrane by microbeta scintillation counting method
Assay type: cell membranes, CHO-K1
pKi: −log10 of the molar value.
readout.kind: pKi

Cc1ccc(OC[C@@H]2C[C@H]3C[C@H]3N2C)cn1    7.70
Cl.Clc1ccc(OC[C@@H]2C[C@@H]3C[C@@H]3N2)cn1    8.19
Clc1ccc(OC[C@@H]2C[C@H]3C[C@H]3N2)nn1    5.32
Clc1ncccc1OC[C@@H]1C[C@@H]2C[C@@H]2N1    9.00
c1nnc(-c2cncc(OC[C@@H]3C[C@H]4C[C@H]4N3)c2)o1    6.88
Clc1cncc(OC[C@@H]2C[C@@H]3C[C@@H]3N2)c1    6.49
Cl.c1cncc(OC[C@@H]2C[C@@H]3C[C@@H]3N2)c1    5.87
Cl.Clc1ccc(OC[C@@H]2CC[C@H]3C[C@H]3N2)cn1    7.69
CN1[C@H](COc2cccnc2F)C[C@H]2C[C@H]21    7.50

----------
method.summary: Metabolic stability in rat liver microsomes assessed as compound metabolism incubated for 30 mins in presence of NADPH by LC-MS/MS analysis
Assay type: ADME, Microsome
measurement.parameters: read-out: Drug metabolism
Kind request: treat 30% as inclusive, so metabolised at 0.5 h at 30% or higher is true, anything lower is false.

Clc1ccc(OC[C@H]2C[C@H]3C[C@H]3N2)cn1    true
Cl.c1cncc(OC[C@@H]2C[C@@H]3C[C@@H]3N2)c1    false
Cl.Clc1cncc(OC[C@@H]2C[C@H]3C[C@H]3N2)c1    true
Cl.Clc1ccc(OC[C@@H]2C[C@H]3C[C@H]3N2)cn1    true
c1cncc(OC[C@H]2NC[C@@H]3C[C@@H]32)c1    false

----------
assayed.system: Neuronal acetylcholine receptor; alpha4/beta2 (Homo sapiens, UniProt P17787+P43681)
method.summary: Displacement of [3H]cytisine from human alpha4beta2 nAChR expressed in CHOK1 cell membrane by microbeta scintillation counting method
Below, each entry is listed with its recorded Ki.
readout.kind: Ki (nM)

Clc1cncc(OC[C@]23C[C@H]2CCN3)c1    827
c1ccc2ncc(OC[C@@H]3C[C@H]4C[C@H]4N3)cc2c1    600
Clc1nccnc1OC[C@@H]1C[C@H]2C[C@H]2N1    5110
Fc1ncccc1OC[C@@H]1C[C@H]2C[C@H]2N1    17.4
Clc1cc(OC[C@@H]2C[C@H]3C[C@H]3N2)c(Cl)nc1Cl    265
CN1[C@H](COc2cncc(Br)c2)C[C@H]2C[C@H]21    4.2
CN1[C@H](COc2ccc(Cl)nc2)C[C@H]2C[C@H]21    3.4
C=Cc1nnc(-c2cncc(OC[C@@H]3C[C@H]4C[C@H]4N3)c2)o1    2660

----------
assayed.system: Neuronal acetylcholine receptor; alpha4/beta2 (Homo sapiens, UniProt P17787+P43681)
method.summary: Displacement of [3H]cytisine from human alpha4beta2 nAChR expressed in CHOK1 cell membrane by microbeta scintillation counting method
pKi: −log10 of the molar value.
readout.kind: pKi

CN1[C@H](COc2cccnc2)C[C@H]2C[C@H]21    8.26
Cl.c1cncc(OC[C@@H]2C[C@H]3C[C@H]3N2)c1    8.10
FC(F)(F)c1ccc(OC[C@@H]2C[C@H]3C[C@H]3N2)cn1    6.11
c1cncc(OC[C@]23C[C@H]2CCN3)c1    6.62
Cl.Clc1ccc(OC[C@H]2C[C@@H]3C[C@@H]3N2)cn1    7.41
Brc1cncc(OC[C@@H]2C[C@H]3C[C@H]3N2)c1    8.19
c1cncc(OC[C@H]2NC[C@@H]3C[C@@H]32)c1    9.85
Clc1ccc(OC[C@H]2C[C@H]3C[C@H]3N2)cn1    6.48
Cc1ccc(OC[C@@H]2C[C@@H]3C[C@@H]3N2)cn1    8.86
Clc1cc(OC[C@@H]2C[C@H]3C[C@H]3N2)cnc1Cl    6.83
Cl.c1cncc(OC[C@@H]2CC[C@H]3C[C@H]3N2)c1    7.94

----------
method.summary: Ratio of drug level in brain to plasma in Wistar rat at 10 ml/kg, po or 2 ml/kg, iv measured upto 24 hrs by LC-MS/MS analysis
Assay type: ADME, organism-based
measurement.parameters: brain and plasma, read-out: BPR
Below, each entry is listed with its recorded Kp at 24 h.
readout.kind: Kp at 24 h

Cl.Clc1cncc(OC[C@@H]2C[C@H]3C[C@H]3N2)c1    3.79
Cl.c1cncc(OC[C@@H]2CC[C@H]3C[C@H]3N2)c1    0.32
Cl.Clc1ccc(OC[C@@H]2C[C@H]3C[C@H]3N2)cn1    2.34
Cl.c1cncc(OC[C@@H]2C[C@H]3C[C@H]3N2)c1    3.8
Cl.Clc1ccc(OC[C@@H]2C[C@@H]3C[C@@H]3N2)cn1    2.14

----------
method.summary: Half life in Wistar rat at 10 ml/kg, po or 2 ml/kg, iv measured upto 24 hrs by LC-MS/MS analysis
Type: ADME, organism-based
measurement.parameters: in vivo
readout.kind: half-life (h)

Cl.Clc1ccc(OC[C@@H]2CC[C@H]3C[C@H]3N2)cn1    0.68
Cl.Clc1ncccc1OC[C@@H]1C[C@H]2C[C@H]2N1    2.15
Cl.c1cncc(OC[C@@H]2CC[C@H]3C[C@H]3N2)c1    0.01
Cl.Fc1ccc(OC[C@@H]2C[C@H]3C[C@H]3N2)cn1    4.02
